read-out: Monocyte Chemoattractant Protein-1 (MCP1), CCL2 (gene 6347); experiment: BSK_SAg_MCP1: BioMAP Diversity Plus: SAg Assay for Monocyte Chemoattractant Protein-1 (MCP1) Biomarker Activity (AID 2283090); details: primary human HUVEC with PBMC; actives raise or lower the signal
Activity calls are given as the source filed them. How the source made its calls: active means hit-call score of the fitted dose curve at least 0.9, where 1 is the maximum; inactive means score below 0.9.
Outcomes: yes (1) (active), no (0) (inactive)

{"compound": "CCCCCOC(=O)COc1cc(N2C(=O)C3=C(CCCC3)C2=O)c(F)cc1Cl", "group-label": "no (0)"}
{"compound": "C[C@]12C[C@H](O)[C@H]3[C@@H](CCC4=CC(=O)CC[C@@]43C)[C@@H]1CC[C@@H]2C(=O)CO", "group-label": "no (0)"}
{"compound": "c1ccc2[nH]c(-c3cscn3)nc2c1", "group-label": "no (0)"}
{"compound": "C#C[C@]1(O)CC[C@H]2[C@@H]3CCC4=CC(=O)CC[C@@H]4[C@H]3CC[C@@]21CC", "group-label": "no (0)"}
{"compound": "CC(=O)[C@H]1CC[C@H]2[C@@H]3CCC4=CC(=O)CC[C@]4(C)[C@H]3CC[C@]12C", "group-label": "no (0)"}
{"compound": "COC(=O)c1cccc(C)c1S(=O)(=O)NC(=O)Nc1nc(OCC(F)(F)F)nc(N(C)C)n1", "group-label": "no (0)"}
{"compound": "CC(C)CCCCCCc1ccc(O)cc1", "group-label": "yes (1)"}
{"compound": "COc1c(Cl)ccc(Cl)c1C(=O)O", "group-label": "yes (1)"}
{"compound": "CCCN(CCC)c1c([N+](=O)[O-])cc(C(F)(F)F)c(N)c1[N+](=O)[O-]", "group-label": "yes (1)"}
{"compound": "CCCCCCC(C)OC(=O)COc1nc(F)c(Cl)c(N)c1Cl (configuration not stated)", "group-label": "yes (1)"}
{"compound": "COC(=O)c1ccc(I)cc1S(=O)(=O)NC(=O)Nc1nc(C)nc(OC)n1", "group-label": "no (0)"}
{"compound": "O=C(O)C1(C(=O)Nc2ccc(Cl)cc2Cl)CC1", "group-label": "no (0)"}
{"compound": "S=C([S-])NCCNC(=S)[S-].[Mn+2]", "group-label": "yes (1)"}
{"compound": "CCCN(CCC)C(=O)SCC", "group-label": "no (0)"}
{"compound": "CC1(C)C(C=C(Cl)Cl)C1C(=O)OCc1cccc(Oc2ccccc2)c1 (configuration not stated)", "group-label": "no (0)"}
{"compound": "S=C(S)NCCNC(=S)S.[Mn+2].[S-]C([S-])=NCCN=C([S-])[S-].[Zn+2]", "group-label": "no (0)"}
{"compound": "CCOC(=O)[C@H](C)Oc1ccc(Oc2nc3ccc(Cl)cc3o2)cc1", "group-label": "no (0)"}
{"compound": "CCOC(=O)C(C)Oc1ccc(Oc2nc3ccc(Cl)cc3o2)cc1 (configuration not stated)", "group-label": "yes (1)"}
{"compound": "CCOC(=O)NCCOc1ccc(Oc2ccccc2)cc1", "group-label": "yes (1)"}
{"compound": "C#CCOC(=O)[C@@H](C)Oc1ccc(Oc2ncc(Cl)cc2F)cc1", "group-label": "no (0)"}
{"compound": "O=C(O)c1ccccc1", "group-label": "no (0)"}
{"compound": "CCOC(=O)COc1cc(-n2ncc(C(F)(F)F)c(C)c2=O)c(F)cc1Cl", "group-label": "no (0)"}
{"compound": "CCOC(=O)C(C)Oc1ccc(Oc2cnc3cc(Cl)ccc3n2)cc1 (configuration not stated)", "group-label": "no (0)"}
{"compound": "CCCOC(=O)c1ccc(C(=O)OCCC)nc1", "group-label": "no (0)"}
{"compound": "CC(=O)S[C@@H]1CC2=CC(=O)CC[C@]2(C)[C@H]2CC[C@@]3(C)[C@@H](CC[C@@]34CCC(=O)O4)[C@H]12", "group-label": "yes (1)"}
{"compound": "O=C(Nc1ccc([N+](=O)[O-])cc1Cl)c1cc(Cl)ccc1O", "group-label": "yes (1)"}
{"compound": "CCCOC(=O)NCCCN(C)C", "group-label": "no (0)"}
{"compound": "CC(C)(C)[C@@H](O)[C@@H](Cc1ccc(Cl)cc1)n1cncn1", "group-label": "no (0)"}
{"compound": "CCNc1nc(N)nc(Cl)n1", "group-label": "no (0)"}
{"compound": "OB(O)O", "group-label": "no (0)"}
{"compound": "CCN(Cc1c(F)cccc1Cl)c1c([N+](=O)[O-])cc(C(F)(F)F)cc1[N+](=O)[O-]", "group-label": "no (0)"}
{"compound": "CN(C)C(=O)Nc1ccc(Cl)c(Cl)c1", "group-label": "no (0)"}

Origin of values: PubChem BioAssay (EPA / NIEHS)
